assayOverview: total protein half-life in vivo (active degradation + dilution); higher = more stable protein
testConditions: wild type E. coli NCM3722; growth: C-lim chemostat; doubling time 3 h

sequenceEntry	total protein half-life in vivo [h]
MKKIAAISLISIFIMSGCAVHNDETSIGKFGLAYKSNIQRKLDNQYYTEAEASLARGRISGAENIVKNDATHFCVTQGKKMQIVELKTEGVGLHGVARLTFKCGE	3.03
MSDNLPWKTWTPDDLAPPQAEFVPIVEPEETIIEEAEPSLEQQLAQLQMQAHEQGYQAGIAEGRQQGHKQGYQEGLAQGLEQGLAEAKSQQAPIHARMQQLVSEFQTTLDALDSVIASRLMQMALEAARQVIGQTPTVDNSALIKQIQQLLQQEPLFSGKPQLRVHPDDLQRVDDMLGATLSLHGWRLRGDPTLHPGGCKVSADEGDLDASVATRWQELCRLAAPGVV	2.19
MKQLWFAMSLVTGSLLFSANASATPASGALLQQMNLASQSLNYELSFISINKQGVESLRYRHARLDNRPLAQLLQMDGPRREVVQRGNEISYFEPGLEPFTLNGDYIVDSLPSLIYTDFKRLSPYYDFISVGRTRIADRLCEVIRVVARDGTRYSYIVWMDTESKLPMRVDLLDRDGETLEQFRVIAFNVNQDISSSMQTLAKANLPPLLSVPVGEKAKFSWTPTWLPQGFSEVSSSRRPLPTMDNMPIESRLYSDGLFSFSVNVNRATPSSTDQMLRTGRRTVSTSVRDNAEITIVGELPPQTAKRIAENIKFGAAQ [P0AFX9]	2.96
MHYQPKQDLLNDRIILVTGASDGIGREAAMTYARYGATVILLGRNEEKLRQVASHINEETGRQPQWFILDLLTCTSENCQQLAQRIAVNYPRLDGVLHNAGLLGDVCPMSEQNPQVWQDVMQVNVNATFMLTQALLPLLLKSDAGSLVFTSSSVGRQGRANWGAYAASKFATEGMMQVLADEYQQRLRVNCINPGGTRTAMRASAFPTEDPQKLKTPADIMPLYLWLMGDDSRRKTGMTFDAQPGRKPGISQ	2.99
MDHAIYTAMGAASQTLNQQAVTASNLANASTPGFRAQLNALRAVPVEGLSLPTRTLVTASTPGADMTPGKMDYTSRPLDVALQQDGWLAVQTADGSEGYTRNGSIQVDPTGQLTIQGHPVIGEAGPIAVPEGAEITIAADGTISALNPGDPANTVAPVGRLKLVKATGSEVQRGDDGIFRLSAETQATRGPVLQADPTLRVMSGVLEGSNVNAVAAMSDMIASARRFEMQMKVISSVDDNAGRANQLLSMS	0.504
MTIYTLSHGSLKLDVSDQGGVIEGFWRDTTPLLRPGKKSGVATDASCFPLVPFANRVSGNRFVWQGREYQLQPNVEWDAHYLHGDGWLGEWQCVSHSDDSLCLVYEHRSGVYHYRVSQAFHLTADTLTVTLSVTNQGAETLPFGTGWHPYFPLSPQTRIQAQASGYWLEREQWLAGEFCEQLPQELDFNQPAPLPRQWVNNGFAGWNGQARIEQPQEGYAIIMETTPPAPCYFIFVSDPAFDKGYAFDFFCLEPMSHAPDDHHRPEGGDLIALAPGESTTSEMSLRVEWL	0.925
